Numbers sourced from patent US12617779B2.

experiment: Stability evaluation of solution formulation (Experimental Example 2); format: physicochemical; settings: solution formulation, pH3.0, 1 week
For each of the compounds below, state its Residual rate.

Return reported Residual rate; argument: CCN(C[C@H]1CCCCN1)C(=O)Oc1cc(O)c2c(=O)cc(-c3ccccc3Cl)oc2c1[C@H]1CCN(C)C[C@H]1O
96.5%

Report Residual rate for CN1CC[C@H](c2c(OC(=O)N(C)CCN)cc(O)c3c(=O)cc(-c4ccccc4Cl)oc23)[C@H](O)C1 [Comparative Example 13, reference compound] please.
99.3%

I would be grateful if you could share the reported Residual rate for CCCN(C[C@@H]1CCCCN1)C(=O)Oc1cc(O)c2c(=O)cc(-c3ccccc3Cl)oc2c1[C@H]1CCN(C)C[C@H]1O .
98.2%

For CCCN(C[C@H]1CCCCN1)C(=O)Oc1cc(O)c2c(=O)cc(-c3ccccc3Cl)oc2c1[C@H]1CCN(C)C[C@H]1O , what is its reported Residual rate?
98.8%

Entry CNCCN(C)C(=O)Oc1cc(O)c2c(=O)cc(-c3ccccc3Cl)oc2c1[C@H]1CCN(C)C[C@H]1O [Comparative Example 14, reference compound] has what Residual rate?
97.1%
